Assay Target: Kir6.1/SUR2B (Homo sapiens, UniProt O60706)
Construct: expressed in transfected cells; Kir6.1 tetracycline-inducible, SUR2B constitutive
Sequence (O60706 1-1549 isoform O60706-2, species assumed): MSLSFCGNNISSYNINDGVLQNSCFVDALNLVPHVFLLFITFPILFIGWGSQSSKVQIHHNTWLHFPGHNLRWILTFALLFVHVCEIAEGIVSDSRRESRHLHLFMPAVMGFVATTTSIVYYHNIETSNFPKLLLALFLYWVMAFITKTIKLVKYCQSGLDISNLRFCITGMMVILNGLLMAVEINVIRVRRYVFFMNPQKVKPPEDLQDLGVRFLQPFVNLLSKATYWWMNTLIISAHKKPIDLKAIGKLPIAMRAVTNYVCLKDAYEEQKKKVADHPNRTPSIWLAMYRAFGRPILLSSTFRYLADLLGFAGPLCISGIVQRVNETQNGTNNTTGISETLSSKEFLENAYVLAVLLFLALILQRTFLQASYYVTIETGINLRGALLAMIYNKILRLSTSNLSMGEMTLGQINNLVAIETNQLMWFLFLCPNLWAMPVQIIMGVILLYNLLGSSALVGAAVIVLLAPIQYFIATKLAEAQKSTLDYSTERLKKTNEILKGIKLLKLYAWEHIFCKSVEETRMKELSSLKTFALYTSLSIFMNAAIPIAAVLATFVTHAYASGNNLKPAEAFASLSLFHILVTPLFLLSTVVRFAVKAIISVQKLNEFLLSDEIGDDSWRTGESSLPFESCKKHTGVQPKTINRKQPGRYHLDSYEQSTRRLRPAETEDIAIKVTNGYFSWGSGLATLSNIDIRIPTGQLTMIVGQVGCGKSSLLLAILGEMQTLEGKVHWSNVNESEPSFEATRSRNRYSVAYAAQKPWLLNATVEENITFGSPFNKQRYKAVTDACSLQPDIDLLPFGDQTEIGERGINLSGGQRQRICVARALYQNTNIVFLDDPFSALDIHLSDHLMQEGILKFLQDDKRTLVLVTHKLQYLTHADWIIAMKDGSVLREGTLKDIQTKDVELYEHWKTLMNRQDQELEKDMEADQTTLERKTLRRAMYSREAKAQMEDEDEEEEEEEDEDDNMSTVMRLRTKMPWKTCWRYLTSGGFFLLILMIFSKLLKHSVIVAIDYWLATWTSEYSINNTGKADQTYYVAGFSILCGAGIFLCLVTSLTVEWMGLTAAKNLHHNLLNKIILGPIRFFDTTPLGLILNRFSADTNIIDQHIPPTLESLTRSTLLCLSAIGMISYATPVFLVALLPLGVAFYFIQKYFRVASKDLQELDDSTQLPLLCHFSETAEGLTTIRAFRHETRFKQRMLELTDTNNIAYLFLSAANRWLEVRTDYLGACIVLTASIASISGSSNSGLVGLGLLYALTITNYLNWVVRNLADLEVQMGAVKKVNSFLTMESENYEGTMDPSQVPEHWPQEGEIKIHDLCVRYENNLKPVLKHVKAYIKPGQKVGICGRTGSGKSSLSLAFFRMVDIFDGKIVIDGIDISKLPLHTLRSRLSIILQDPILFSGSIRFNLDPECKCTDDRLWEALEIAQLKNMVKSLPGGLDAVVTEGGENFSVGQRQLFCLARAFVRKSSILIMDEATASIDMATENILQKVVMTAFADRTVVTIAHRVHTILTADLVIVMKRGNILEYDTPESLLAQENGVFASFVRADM
Sequence (Q15842 whole entry partner, species assumed): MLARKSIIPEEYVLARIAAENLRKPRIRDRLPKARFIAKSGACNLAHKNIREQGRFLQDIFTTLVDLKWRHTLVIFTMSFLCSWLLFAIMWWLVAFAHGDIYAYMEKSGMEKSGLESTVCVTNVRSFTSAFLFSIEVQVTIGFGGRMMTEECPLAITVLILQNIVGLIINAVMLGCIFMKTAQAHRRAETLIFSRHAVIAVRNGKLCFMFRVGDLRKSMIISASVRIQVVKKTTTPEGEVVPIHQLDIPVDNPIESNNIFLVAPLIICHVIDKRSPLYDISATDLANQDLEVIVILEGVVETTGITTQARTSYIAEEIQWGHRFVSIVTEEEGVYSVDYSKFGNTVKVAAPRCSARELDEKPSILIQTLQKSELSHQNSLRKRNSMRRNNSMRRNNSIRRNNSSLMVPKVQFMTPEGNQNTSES
Assay Protocol: Quantitative thallium flux assay, inhibition, stably transfected T-REx-HEK293 cells
Type: cell-based
Test Conditions: ATP depletion with sodium cyanide and 2-deoxy-glucose, read-out: IC50 Kir6.1/SUR2B, ATP depletion
The entries below are paired with their reported IC50.
Value expressed in nM; do not type the unit.

O=C(NCc1cc(-c2ccncc2)n(C2CCCC2)n1)Nc1cccs1 [VU0544086] ... 1000

API: the following record is the query input.
IN: Find the measured IC50: item O=C1c2oc3ccccc3c(=O)c2C(c2cccc(Br)c2)N1CCO (centres unmarked) [VU0605768] , target or system Kir6.1/SUR2B (Homo sapiens, UniProt O60706).
OUT: 779

* * *

Assay Target: Kir2.2 (Homo sapiens, UniProt Q14500)
Sequence (Q14500 whole entry): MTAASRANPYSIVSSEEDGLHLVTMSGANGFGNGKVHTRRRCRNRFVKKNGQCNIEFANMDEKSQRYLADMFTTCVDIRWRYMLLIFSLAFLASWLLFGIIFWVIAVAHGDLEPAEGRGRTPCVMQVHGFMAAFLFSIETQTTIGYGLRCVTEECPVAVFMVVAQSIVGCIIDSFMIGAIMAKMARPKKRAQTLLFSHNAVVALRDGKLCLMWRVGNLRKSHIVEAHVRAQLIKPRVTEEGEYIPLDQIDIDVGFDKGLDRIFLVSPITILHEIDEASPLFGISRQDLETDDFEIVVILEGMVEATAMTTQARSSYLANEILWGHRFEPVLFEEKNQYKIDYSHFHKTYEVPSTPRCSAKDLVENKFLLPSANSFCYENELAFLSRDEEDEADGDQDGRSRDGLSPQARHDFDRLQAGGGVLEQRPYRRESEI
Assay Protocol: Kir family selectivity thallium flux assay
pIC50: −log10 of the molar value.
Measurement Label: pIC50

c1ccc2[nH]c(CSc3ncnc4c3oc3ccccc34)nc2c1 ... < 4.52
O=C(NCC(O)(c1ccccc1)C(F)(F)F)c1ccc(OC(F)(F)F)cc1 (stereo not shown) ... < 4.52
O=C(NCc1cc(-c2ccncc2)n(C2CCCC2)n1)Nc1cccs1 ... < 4.52

API: the following record is the query input.
IN: Find the measured pIC50: item O=C1c2oc3ccccc3c(=O)c2C(c2cccc(Br)c2)N1CCO (stereo not shown) , target or system Kir2.2 (Homo sapiens, UniProt Q14500).
OUT: < 4.52

* * *

Assay Target: Kir6.1/SUR2B (Homo sapiens, UniProt O60706)
Construct: expressed in transfected cells; Kir6.1 tetracycline-inducible, SUR2B constitutive
Assay Protocol: Quantitative thallium flux assay, inhibition, stably transfected T-REx-HEK293 cells
Type: cell-based
Test Conditions: channels activated with 10 µM pinacidil, read-out: IC50 Kir6.1/SUR2B, pinacidil activation
Measurement Label: IC50 (µM)
Value expressed in µM; do not type the unit.

Solved cases below.
O=C1c2oc3ccccc3c(=O)c2C(c2cccc(Br)c2)N1CCO (stereo not shown) ... 0.479
Cc1nc(-c2cccs2)sc1CNC(=O)Nc1cccs1 [VU0542270, reference compound] ... 0.1
c1ccc2[nH]c(CSc3ncnc4c3oc3ccccc34)nc2c1 ... 1.4

API: the following record is the query input.
IN: Find the measured IC50: item O=C(NCc1cc(-c2ccncc2)n(C2CCCC2)n1)Nc1cccs1 , target or system Kir6.1/SUR2B (Homo sapiens, UniProt O60706).
OUT: 1

* * *

Assay Target: Kir3.1/3.4 (Homo sapiens, UniProt P48544+P48549)
Construct: expressed in transfected cells
Sequence (P48549 whole entry): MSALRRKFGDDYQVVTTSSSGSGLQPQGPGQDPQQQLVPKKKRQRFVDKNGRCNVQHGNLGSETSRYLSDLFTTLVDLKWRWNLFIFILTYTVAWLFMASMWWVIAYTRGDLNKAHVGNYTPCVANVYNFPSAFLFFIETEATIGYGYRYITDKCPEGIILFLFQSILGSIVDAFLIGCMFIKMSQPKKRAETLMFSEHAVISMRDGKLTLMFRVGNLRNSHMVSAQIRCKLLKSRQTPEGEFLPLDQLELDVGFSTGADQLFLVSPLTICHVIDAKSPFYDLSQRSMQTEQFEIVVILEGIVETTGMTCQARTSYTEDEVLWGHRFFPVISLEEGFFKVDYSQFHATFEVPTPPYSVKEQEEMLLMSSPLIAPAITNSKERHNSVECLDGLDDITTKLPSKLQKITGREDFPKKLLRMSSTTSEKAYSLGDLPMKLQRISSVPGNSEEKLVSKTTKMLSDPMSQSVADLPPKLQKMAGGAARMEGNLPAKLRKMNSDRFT
Sequence (P48544 whole entry): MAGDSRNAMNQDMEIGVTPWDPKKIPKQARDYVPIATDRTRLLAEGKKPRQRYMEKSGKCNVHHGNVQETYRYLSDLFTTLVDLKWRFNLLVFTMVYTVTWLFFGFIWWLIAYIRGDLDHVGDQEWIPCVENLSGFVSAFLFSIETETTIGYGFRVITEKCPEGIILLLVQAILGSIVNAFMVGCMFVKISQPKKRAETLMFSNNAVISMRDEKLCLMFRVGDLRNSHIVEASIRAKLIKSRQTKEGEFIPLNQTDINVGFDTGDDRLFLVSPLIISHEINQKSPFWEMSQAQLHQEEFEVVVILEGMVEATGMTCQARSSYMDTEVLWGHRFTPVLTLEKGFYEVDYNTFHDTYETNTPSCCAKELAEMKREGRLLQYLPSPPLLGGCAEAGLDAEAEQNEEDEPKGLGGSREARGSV
Assay Protocol: Kir family selectivity thallium flux assay
Type: cell-based
Test Conditions: thallium flux
pIC50: −log10 of the molar value.
Measurement Label: pIC50

O=C(NCC(O)(c1ccccc1)C(F)(F)F)c1ccc(OC(F)(F)F)cc1 (stereo not shown) ... < 4.52
O=C1c2oc3ccccc3c(=O)c2C(c2cccc(Br)c2)N1CCO (stereo not shown) ... < 4.52
c1ccc2[nH]c(CSc3ncnc4c3oc3ccccc34)nc2c1 ... < 4.52

API: the following record is the query input.
IN: What value of pIC50 has been recorded for this entry: O=C(NCc1cc(-c2ccncc2)n(C2CCCC2)n1)Nc1cccs1
OUT: 4.79
